Each entry below carries its recorded protein stability index.
B1: RAD51 (parent)
chain: APKKELINIKGISEAKADKILAEA

- Variants of: B1
- Method Description: protein stability index of a GFP-peptide fusion (GPS, HEK-293T) (PSI 1-6); higher = more stable;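 further: lentivirally expressed fusions sorted by FACS into six bins by GFP to DsRed ratio, PSI derived from sequencing read proportions per bin multiplied by bin number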
- Test Parameters: c terminus: a fixed tail appended

{"columns": ["Sequence Variant", "protein stability index"],
 "data": [
  ["P2Q", 4.88],
  ["K19E", 5.12],
  ["L21N", 5.02],
  ["N8P", 4.88]
]}
